Molecular target: Nuclear receptor ROR-gamma (Homo sapiens) (UniProt P51449)
Experiment: qHTS assay to identify small molecule antagonists of the retinoid-related orphan receptor gamma (ROR-gamma) signaling pathway (AID 1159521; also: nearly all actives have a fitted effect of over 50% in size)
Settings: Tet-on RORgamma CHO cells, RORE-luciferase, 16 h; series mostly up to 92.4 µM
Inconclusive results are not listed. Activity calls are given as the source filed them. Calls follow the shape of the dose curve; as a rule, active = well fitted inhibition curve with a large enough effect in the repeat runs; inconclusive = weak or mixed curves, or effect the other way; inactive = no such curve, though single readings can be large or run the other way.
Mark one answer only. Choices: True = active, False = inactive

Record excerpt, results attached:
molecule | labelClass
c1ccc(CNCc2ccccc2)cc1 | False
CC1(C)CCC(C)(C)c2cc(NC(=O)c3ccc(C(=O)O)cc3)ccc21 | True
C=C(C)C(=O)OC(C)C | False
CC(=O)CC(=O)c1ccccc1 | True
O=C(/C=C/c1ccc(O)c(O)c1)O[C@@H]1C[C@](O)(C(=O)O)C[C@@H](O)[C@H]1O | False
C=CC(=O)OCCOC(=O)CCC(=O)O | False

Ask: GET /call?item= CC1(C)[C@H]2CC[C@]1(C)[C@H](O)C2 returns the recorded outcome of this test.
Result: False

Ask: GET /call?item= COc1ccc(C(C)=O)cc1 returns the recorded outcome of this test.
Result: False

Ask: So what was the verdict on C=CCCCCCC in this test?
Result: False

Ask: Could you check what this test reported for CC(=O)N(CC(=O)N(C)C)c1ccccc1 ?
Result: False

Ask: Kindly provide the recorded test outcome for the following molecule: O=C(NN1CCCC1)NS(=O)(=O)c1ccc(Cl)cc1
Result: False

Ask: Any idea what this test logged for C=CC[N+]1([C@H]2C[C@H]3[C@@H]4CC[C@H]5C[C@H](OC(C)=O)[C@@H](N6CCCCC6)C[C@]5(C)[C@H]4CC[C@]3(C)[C@H]2OC(=O)CC)CCCCC1 ?
Result: False

Ask: In this assay, the call recorded for Cc1ccc(C)o1 was what?
Result: False

Ask: Which result was noted for this molecule in the test: CC(=O)O[C@@H]1C(=O)O[C@@H]2[C@H]1OC(=O)[C@@H]2OC(C)=O
Result: False

Ask: Called result for CCN1CCC[C@H]1CNC(=O)c1c(OC)ccc(Br)c1OC
Result: False

Ask: In this assay, the call recorded for CC(C)c1cccc(C(C)C)c1NC(=O)NS(=O)(=O)c1cc(C(C)(C)O)co1 was what?
Result: False

Ask: Please let me know the test result on file for CCOc1nc2cccc(C(=O)O)c2n1Cc1ccc(-c2ccccc2-c2nn[nH]n2)cc1 .
Result: False

---

Biological target: Nuclear receptor subfamily 1 group I member 2 (Homo sapiens) (UniProt O75469)
Experiment: CYP3A4 induction through human pregnane X receptor (PXR) by small molecules, qHTS assay (AID 1346984); also: nearly all actives have a fitted effect of over 40% in size
Conditions: DPX-2 HepG2 PXR, CYP3A4-luciferin luminescence, 24 h; series mostly up to 46.1 µM
Inconclusive results are not listed. The source made the active and inactive calls. The call rests on the fitted dose curve; in most records, active means well fitted activation curve with a large enough effect in the repeat runs; inconclusive means weak or mixed curves; inactive means no such curve, though single readings can be large or run the other way.
Field 'call' accepts active, inactive

molecule | labelClass
CCOC(=O)[C@H](CCc1ccccc1)N[C@H]1CCc2ccccc2N(CC(=O)O)C1=O | active
O=C(O)[C@@H]1[C@H]2C[C@H]3c4[nH]c5ccccc5c4CCN3C[C@@H]2CC[C@@H]1O | inactive
CN1CCC(=C2c3ccccc3CCc3sccc32)CC1 | active
CCN(CC)CCOC(=O)C1(c2ccccc2)CCCC1 | inactive
Cc1ccccc1N=Nc1ccc(N=Nc2c(O)ccc3ccccc23)c(C)c1 | active
CC(C)(C)C(=O)OCOP(=O)(COCCn1cnc2c(N)ncnc21)OCOC(=O)C(C)(C)C | inactive

Ask: Please share the test call associated with O=C(O)COC(=O)Cc1ccccc1Nc1c(Cl)cccc1Cl .
Result: inactive

Ask: Answer briefly: the call reported for CC(=O)N(O)CCCCCNC(=O)CCC(=O)N(O)CCCCCNC(=O)CCC(=O)N(O)CCCCCN in this assay.
Result: inactive
